The values you see were collected from PubChem BioAssay AID651639.

IC50 listing for selected molecules.
molecular target: corticotropin-releasing factor-binding protein / CRF receptor 2 complex (human); assay: CRF-BP/CRF-R2 complex antagonists, dose response, cell-based, uHTS hits, 384-well (AID 651639); conditions: CRF-BP/CRF-R2 complex antagonism, cell-based 384-well
Calls of active or inactive are those of the source. How the calls were made is not given here.

# Molecule, IC50
data = [
    ("N#C/C(=C(/O)Cc1cccc2ccccc12)c1nc2ccccc2s1", "11.3 µM"),
    ("Cc1ccc2nc(N3C(=O)C(O)=C(C(=O)c4ccco4)C3c3cccc(O)c3)sc2c1 (stereo not given)", "> 20 µM (inactive)"),
    ("CN1C(=O)C(N=Nc2ccc([N+](=O)[O-])cc2)SC1=S (stereo not given)", "1 µM"),
    ("CN1c2ccccc2C(O)=C(C(=S)Nc2ccc(Cl)cc2)S1(=O)=O", "> 20 µM (inactive)"),
    ("O=C1N=c2ccccc2=C1c1sc(=S)n(NC(=O)c2cccc(O)c2)c1O", "> 20 µM (inactive)"),
    ("N#C/C(=C(/O)COc1ccc(Cl)cc1)c1nc2ccccc2s1", "> 20 µM (inactive)"),
    ("COc1ccc(C(C)=NNc2ccc([N+](=O)[O-])cc2S(=O)(=O)Nc2ccccc2C(=O)O)c(OC)c1", "9.4 µM"),
    ("O=[N+]([O-])c1cc(/C=N\\O)ccc1Oc1ccc(F)cc1", "17.5 µM"),
    ("Cc1cc(=O)oc2c1ccc1oc(/C(=N/O)c3ccccc3)c(C)c12", "> 20 µM (inactive)"),
    ("Cc1ccc(-n2[nH]c(C)c(/C=N/Nc3ccc([N+](=O)[O-])cc3[N+](=O)[O-])c2=O)cc1", "15.5 µM"),
    ("O=C(O)c1ccc(/C=N/Nc2cccc(C(F)(F)F)c2)cc1", "> 20 µM (inactive)"),
    ("Cc1ccc2nc(N3C(=O)C(O)=C(C(=O)c4ccc(C)o4)C3c3cccc(O)c3)sc2c1 (stereo not given)", "10.4 µM"),
    ("COc1ccc(/C=N/OCC(=O)N=Nc2c(O)[nH]c3ccc(Br)cc23)cc1", "> 20 µM (inactive)"),
    ("COC(=O)c1ccc(/C(O)=C(\\C#N)c2nc3ccccc3s2)cc1", "> 20 µM (inactive)"),
    ("Cc1ccc(S(=O)(=O)N(CC(=O)N=Nc2c(O)[nH]c3ccccc23)c2ccc(C)c(C)c2)cc1", "> 20 µM (inactive)"),
]
